# ASSAYED SYSTEM: CFTR-mediated chloride transport in human intestinal epithelial enteroid cells (Homo sapiens, UniProt P13569)
# Sequence (P13569 with tags, fused parts or gaps DEL508-508): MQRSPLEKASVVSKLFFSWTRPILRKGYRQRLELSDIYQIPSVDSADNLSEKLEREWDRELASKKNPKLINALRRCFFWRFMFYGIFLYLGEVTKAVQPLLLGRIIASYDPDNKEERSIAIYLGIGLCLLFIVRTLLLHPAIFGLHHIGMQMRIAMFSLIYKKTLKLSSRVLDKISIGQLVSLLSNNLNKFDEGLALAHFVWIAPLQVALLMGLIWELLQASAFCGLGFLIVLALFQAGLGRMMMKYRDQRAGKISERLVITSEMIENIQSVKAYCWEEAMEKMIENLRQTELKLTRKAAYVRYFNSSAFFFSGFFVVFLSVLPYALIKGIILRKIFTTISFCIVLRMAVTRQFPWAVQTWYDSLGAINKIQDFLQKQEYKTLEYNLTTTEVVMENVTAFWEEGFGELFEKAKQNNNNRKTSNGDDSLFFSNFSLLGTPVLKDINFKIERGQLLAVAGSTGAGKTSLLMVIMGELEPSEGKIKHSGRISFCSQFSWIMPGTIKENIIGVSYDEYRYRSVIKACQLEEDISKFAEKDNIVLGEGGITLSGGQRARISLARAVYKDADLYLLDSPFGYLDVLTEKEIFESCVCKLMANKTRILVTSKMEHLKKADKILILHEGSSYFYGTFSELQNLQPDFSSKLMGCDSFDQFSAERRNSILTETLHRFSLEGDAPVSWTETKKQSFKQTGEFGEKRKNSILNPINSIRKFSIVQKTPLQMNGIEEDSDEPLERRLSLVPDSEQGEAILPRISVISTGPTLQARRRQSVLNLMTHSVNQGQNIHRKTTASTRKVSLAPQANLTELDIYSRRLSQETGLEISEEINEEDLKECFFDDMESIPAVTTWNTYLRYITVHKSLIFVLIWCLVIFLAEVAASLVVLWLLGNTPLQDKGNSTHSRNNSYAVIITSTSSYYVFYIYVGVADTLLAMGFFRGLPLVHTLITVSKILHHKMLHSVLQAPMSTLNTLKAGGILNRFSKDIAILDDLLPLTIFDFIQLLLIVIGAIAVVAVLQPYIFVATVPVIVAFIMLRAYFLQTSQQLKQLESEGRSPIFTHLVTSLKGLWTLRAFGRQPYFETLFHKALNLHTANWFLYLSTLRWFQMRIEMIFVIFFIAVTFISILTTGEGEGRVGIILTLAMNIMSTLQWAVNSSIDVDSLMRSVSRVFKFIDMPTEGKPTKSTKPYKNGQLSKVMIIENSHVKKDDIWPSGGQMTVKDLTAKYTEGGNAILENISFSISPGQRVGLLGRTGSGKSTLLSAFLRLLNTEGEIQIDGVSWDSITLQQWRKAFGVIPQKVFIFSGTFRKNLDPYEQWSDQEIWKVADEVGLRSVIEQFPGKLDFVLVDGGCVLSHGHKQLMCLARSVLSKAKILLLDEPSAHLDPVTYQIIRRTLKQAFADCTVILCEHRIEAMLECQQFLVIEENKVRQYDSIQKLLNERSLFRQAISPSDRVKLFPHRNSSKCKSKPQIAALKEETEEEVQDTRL
# ASSAY TEXT: Membrane potential dye, Enteroid Assay A
# Assay type: cell-based
# TEST CONTEXT: enteroid cells incubated with test compound 18-24 hours; acute 10 μM forskolin and 300 nM N-[2,4-bis(1,1-dimethylethyl)-5-hydroxyphenyl]-1,4-dihydro-4-oxoquinoline-3-carboxamide; read-out: Ent. A EC50
pEC50: −log10 of the molar value.
Each record here notes measured pEC50.

1. Cc1cccc(C)c1-c1cc2nc(n1)NS(=O)(=O)c1cccc(c1)C(=O)N1CCN(CC3(C)COC3)CC(C1)O2 (stereo not shown)
4.52 to 5.52

Query: Identify pEC50 associated with the molecule Cc1cccc(C)c1-c1cc2nc(n1)NS(=O)(=O)c1cccc(c1)C(=O)N1CCN(Cc3ccccc3)C[C@H](C1)O2
Result: > 6.00

Query: Provide only the value of recorded pEC50 for Cc1cccc(C)c1-c1cc2nc(n1)NS(=O)(=O)c1cccc(c1)C(=O)N1CCN(CC3CCCCC3)CC(C1)O2 (stereo not shown)
Result: > 6.00

Query: Look up and state reported pEC50 for Cc1cccc(C)c1-c1cc2nc(n1)NS(=O)(=O)c1cccc(c1)C(=O)N1CCN(Cc3ccccc3C#N)C[C@@H]1CO2
Result: 4.52 to 5.52

Query: Note pEC50 for the molecule shown: Cc1cccc(C)c1-c1cc2nc(n1)NS(=O)(=O)c1cccc(c1)C(=O)N1CCN(C(=O)NC3CCCCCC3)C[C@@H]1CO2
Result: 4.52 to 5.52

Query: Specify pEC50 for CC(=O)NCCN1CCN2C(=O)c3cccc(c3)S(=O)(=O)Nc3nc(cc(-c4c(C)cccc4C)n3)OC[C@H]2C1 and stop.
Result: 4.52 to 5.52

Query: Check the records and state pEC50 for Cc1cccc(C)c1-c1cc2nc(n1)NS(=O)(=O)c1cccc(c1)C(=O)N1CCN(Cc3ccccc3O)CC(C1)O2 (stereo not shown)
Result: > 6.00

Query: Determine its reported pEC50: Cc1cccc(C)c1-c1cc2nc(n1)NS(=O)(=O)c1cccc(c1)C(=O)N1CC3CCCN(C)C3[C@H](C1)O2 (single isomer, unassigned)
Result: > 6.00

Query: Return pEC50 for the following molecule: Cc1cccc(C)c1-c1cc2nc(n1)NS(=O)(=O)c1cc(n(C)n1)C(=O)N1Cc3ccccc3[C@H](C1)O2 [Compound 341]
Result: 4.52 to 5.52

Query: Consider the molecule CC(C)CCc1ccccc1-c1cc2nc(n1)NS(=O)(=O)c1cccc(c1)C(=O)N1Cc3ccccc3C(C1)O2 (stereo not shown) and give its recorded pEC50.
Result: > 6.00

Query: Query pEC50 for Cc1cccc(C)c1-c1cc2nc(n1)NS(=O)(=O)c1cccc(c1)C(=O)N1CCN(C(=O)OC(C)(C)C)CC(C1)O2 (stereo not shown)
Result: > 6.00

Query: Give me measured pEC50, please, for this molecule: CNc1ccc(CN2CCN3CC(C2)Oc2cc(-c4c(C)cccc4C)nc(n2)NS(=O)(=O)c2cccc(c2)C3=O)cn1 (stereo not shown)
Result: 4.52 to 5.52

Query: Report pEC50 for Cc1cccc(C)c1-c1cc2nc(n1)NS(=O)(=O)c1cccc(c1)C(=O)N1CC(O2)C(N2CCOCC2)C1 (stereo not shown)
Result: 4.52 to 5.52

Reference source: patent US20240018161A1
